Tested on: MCF7
method-notes: Antiproliferative activity against human MCF7 cells after 48 hrs by MTT assay
Type: functional, cell-based
conditions: MCF7, 48 h
pIC50: −log10 of the molar value.

- line-notation: "CN1CCN(CC(=O)Nc2ccc3ncnc(Nc4ccc(Cl)cc4)c3c2)CC1"
  pIC50: 4.82
- line-notation: "O=C(CN1CCCCC1)Nc1ccc2ncnc(Nc3ccc(Br)cc3)c2c1"
  pIC50: "< 4.00"
- line-notation: "O=C(CN1CCOCC1)Nc1ccc2ncnc(Nc3ccc(OCc4ccccc4)cc3)c2c1"
  pIC50: 4.60
- line-notation: "O=C(CN1CCCC1)Nc1ccc2ncnc(Nc3ccc(OCc4ccccc4)cc3)c2c1"
  pIC50: "< 4.00"
- line-notation: "CN1CCN(CC(=O)Nc2ccc3ncnc(Nc4cccc(Cl)c4)c3c2)CC1"
  pIC50: "< 4.00"
- line-notation: "O=C(CN1CCCCC1)Nc1ccc2ncnc(Nc3cccc(C(F)(F)F)c3)c2c1"
  pIC50: "< 4.00"
- line-notation: "O=C(CN1CCCC1)Nc1ccc2ncnc(Nc3cccc(Cl)c3)c2c1"
  pIC50: "< 4.00"
- line-notation: "O=C(CN1CCOCC1)Nc1ccc2ncnc(Nc3ccc(Cl)cc3)c2c1"
  pIC50: "< 4.00"
- line-notation: "O=C(CN1CCCC1)Nc1ccc2ncnc(Nc3ccc(Cl)cc3)c2c1"
  pIC50: 4.80
- line-notation: "O=C(CN1CCCC1)Nc1ccc2ncnc(Nc3ccc(OCc4cccc(F)c4)cc3)c2c1"
  pIC50: 4.60
- line-notation: "CN1CCN(CC(=O)Nc2ccc3ncnc(Nc4cccc(C(F)(F)F)c4)c3c2)CC1"
  pIC50: "< 4.00"

====

Test system: HepG2
method-notes: Antiproliferative activity against human HepG2 cells after 48 hrs by MTT assay
Type: functional, cell-based
conditions: HepG2, 48 h
Threshold check on IC50: strictly below 20 µM is Fulfilled; on or above 20 µM is Not fulfilled.

- line-notation: "O=C(CN1CCOCC1)Nc1ccc2ncnc(Nc3cccc(Cl)c3)c2c1"
  assigned-class: "Not fulfilled"
- line-notation: "O=C(CN1CCCC1)Nc1ccc2ncnc(Nc3cccc(C(F)(F)F)c3)c2c1"
  assigned-class: "Not fulfilled"
- line-notation: "O=C(CN1CCOCC1)Nc1ccc2ncnc(Nc3ccc(Br)cc3)c2c1"
  assigned-class: "Not fulfilled"
- line-notation: "O=C(CN1CCCC1)Nc1ccc2ncnc(Nc3ccc(Cl)cc3)c2c1"
  assigned-class: "Fulfilled"
- line-notation: "CN1CCN(CC(=O)Nc2ccc3ncnc(Nc4ccc(Br)cc4)c3c2)CC1"
  assigned-class: "Not fulfilled"
- line-notation: "O=C(CN1CCCC1)Nc1ccc2ncnc(Nc3ccc(Cl)c(C(F)(F)F)c3)c2c1"
  assigned-class: "Not fulfilled"
- line-notation: "O=C(CN1CCOCC1)Nc1ccc2ncnc(Nc3ccc(OCc4ccccc4)cc3)c2c1"
  assigned-class: "Not fulfilled"
- line-notation: "O=C(CN1CCCC1)Nc1ccc2ncnc(Nc3cccc(Cl)c3)c2c1"
  assigned-class: "Not fulfilled"
- line-notation: "O=C(CN1CCCC1)Nc1ccc2ncnc(Nc3ccc(OCc4cccc(F)c4)cc3)c2c1"
  assigned-class: "Not fulfilled"
- line-notation: "O=C(CN1CCCCC1)Nc1ccc2ncnc(Nc3cccc(Br)c3)c2c1"
  assigned-class: "Fulfilled"
- line-notation: "O=C(CN1CCOCC1)Nc1ccc2ncnc(Nc3cccc(C(F)(F)F)c3)c2c1"
  assigned-class: "Not fulfilled"
- line-notation: "CN1CCN(CC(=O)Nc2ccc3ncnc(Nc4cccc(Br)c4)c3c2)CC1"
  assigned-class: "Not fulfilled"
- line-notation: "O=C(CN1CCCC1)Nc1ccc2ncnc(Nc3ccc(OCc4ccccc4)cc3)c2c1"
  assigned-class: "Not fulfilled"
- line-notation: "O=C(CN1CCOCC1)Nc1ccc2ncnc(Nc3cccc(Br)c3)c2c1"
  assigned-class: "Fulfilled"
- line-notation: "O=C(CN1CCCCC1)Nc1ccc2ncnc(Nc3cccc(Cl)c3)c2c1"
  assigned-class: "Fulfilled"

Origin of the recorded values: ChEMBL document CHEMBL4152342
